B1: DYRK1B (parent)
chain: RFQDLVLRMLEYEPAARISPLGAL

Variants of: B1
Assay: protein stability index of a GFP-peptide fusion (GPS, HEK-293T) (PSI 1-6); higher = more stable;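 note: lentivirally expressed fusions sorted by FACS into six bins by GFP to DsRed ratio, PSI derived from sequencing read proportions per bin multiplied by bin number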
Conditions: c terminus: a fixed tail appended
ENDPOINT: protein stability index
Format: numeric value only, no unit, no commentary.

Consider the reported protein stability index for these variants:
INSERT INTO measurements (mutation_name, measured_result) VALUES
  ('I18G', 1.27),
  ('L24T', 4.33),
  ('M9S', 1.09),
  ('P20F', 2.2),
  ('A15M', 2.57),
  ('S19G', 1.07),
  ('S19V', 2.91),
  ('A23H', 2.52);

Exercise: Please look up its protein stability index: L21V
Key: 2.56

Exercise: Next variant: E13F
Key: 2.32
